Cited source for all entries: ChEMBL document CHEMBL1201862

System: DMS-273
Assay info: NCI tumour cell line growth inhibition, 48 h
Active and inactive are the calls of the source. No stated cut-off is given here; in the data, active = GI50 up to about 1.1 µM and inactive = higher.
Tick one outcome: active, inactive

Previously resolved entries follow.
molecule=CC(C)(CN1C(=O)C(Cl)=C(Cl)C1=O)CN1C(=O)C(Cl)=C(Cl)C1=O label_class=inactive
molecule=O=C(NO)C(=O)Nc1cc(Cl)ccc1Cl label_class=inactive
molecule="CCC1CN2CCc3cc(OC)c(OC)cc3C2CC1CC1c2cc(OC)c(OC)cc2CCN1C(=O)CNC(=O)OC(C)(C)C (centres undefined)" label_class=inactive

Exam item: Dear colleague, could you share the recorded outcome for COC(=O)C(=Cc1cc(OC)c(OC)c(OC)c1-c1cc2c(cc1C1(C)OCCS1)OCO2)C(=O)OC (centres undefined) when you have a moment?
Marked response: inactive

Exam item: Dear colleague, could you share the recorded outcome for Cc1nc(-n2nc(-c3ccccc3)cc2-c2ccccc2)sc1C(=O)/C=C/c1ccc(/C=C/C(=O)c2sc(-n3nc(-c4ccccc4)cc3-c3ccccc3)nc2C)cc1 when you have a moment?
Marked response: inactive

Exam item: Dear colleague, could you share the recorded outcome for CC(=O)/C(=N\O)C(=O)NCCc1ccccc1 when you have a moment?
Marked response: inactive

Exam item: Dear colleague, could you share the recorded outcome for C[N+](C)(Cc1ccc(NC(=O)CCCC(=O)ON2C(=O)CCC2=O)cc1)c1ccccc1 when you have a moment?
Marked response: active

Exam item: Dear colleague, could you share the recorded outcome for NC12CC3CC(C1)CC(C(=O)O)(C3)C2 when you have a moment?
Marked response: inactive

Exam item: Dear colleague, could you share the recorded outcome for COc1ccc(NC(=O)/C(=N/O)C(C)=O)cc1 when you have a moment?
Marked response: inactive

###

Test system: HT-29
Assay info: NCI tumour cell line growth inhibition, 48 h
Activity calls are given as the source filed them. No stated cut-off is given here; in the data, active = GI50 up to about 1.1 µM and inactive = higher.
Tick one outcome: active, inactive

Previously resolved entries follow.
molecule=COc1ccc2cc(/C=N/NC(=O)Nc3ccccc3)ccc2c1 label_class=inactive
molecule="CCCCCCC(C)CC(CCCCCC)NCCOC(=O)c1ccc([N+](=O)[O-])cc1 (stereo unspecified)" label_class=inactive
molecule=N[C@@H]1CCN(c2c(F)cc3c(=O)c(C(=O)O)cn4c3c2Oc2c-4ccc3c2ccc2ccccc23)C1 label_class=active
molecule=CC(C)c1cc(C(F)(F)F)nc(NNc2nc(C(C)C)cc(C(F)(F)F)n2)n1 label_class=inactive
molecule="Cc1cccc2c1Sc1ccccc1C2NC(=O)CCN(C)C (stereo unspecified)" label_class=inactive
molecule="CCNC(=O)OCC1C2=C(C(=O)C(C)=C(N)C2=O)N2CC3C(N3C)C12OC (stereo unspecified)" label_class=inactive
molecule=COc1cc(Nc2nc3ccc(C(F)(F)F)cc3nc2C(=O)O)cc(OC)c1OC label_class=inactive
molecule=CCCCc1c(O)nc(Nc2nc3ccccc3[nH]2)[nH]c1=O label_class=inactive

Exam item: Dear colleague, could you share the recorded outcome for O=C(NNC(=O)c1c(Cl)c(Cl)c(Cl)c(Cl)c1-c1nc2ccccc2[nH]1)c1ccc(Cl)cc1 when you have a moment?
Marked response: inactive

Exam item: Dear colleague, could you share the recorded outcome for CC1CC/C(=C\c2ccc(F)cc2)C2=C1C(c1ccc(F)cc1)N1C(=O)CSC1=N2 (stereo unspecified) when you have a moment?
Marked response: inactive

Exam item: Dear colleague, could you share the recorded outcome for CC(c1cccc2ccccc12)/[N+]([O-])=C/c1ccccc1 (stereo unspecified) when you have a moment?
Marked response: inactive
